# SYSTEM NAME: GlcNAc(a1-4)Gal(b1-4)GlcNAc(b1-3)Gal(b1-4)GlcNAc(b1-3)Gal(b1-4)GlcNAc
# EXPERIMENTAL DETAILS: glycan array binding signal (z-score within array); higher = stronger binding
# CONDITION NOTES: glycan notation: IUPAC condensed, linker removed
This is one part of a sample in which the strongest signals are shown more often than they occur.

BINDER: Morniga (Morus nigra) (protein) MAGTSTNTQTTGTSQTVEVGLWGGPGGNAWDDGSYTGIREINLSHGDAIGAFSVIYDLNGQPFTGPTHPGNEPSFKTVKITLDFPNEFLVSVSGYTGVLPRLATGKDVIRSLTFKTNKKTYGPYGKEEGTPFSLPIENGLIVGFKGRSGFVVDAIGVHLS
glycan array binding signal (z-score): -0.327
--
BINDER: LICBM33A (Lactococcus lactis), Q9CE94 (protein) MKKLLTGLLVAAGLLSVSLLIKTDTVSAHGYVQSPPARGYQGQLDSQSLGWTAAFNIYGNVISNPQSLEAPKGFPECGPADGRIASANGGLGQIGDFVLDNQTSSRWKKTSISTGSNIFTWKYTAPHKTTKWHYYMTKTGWDQNAPLKHSELELIGTINHDGSPATNNLSHTINIPTDRSGYHIVLAVWDVADTSNAFYNVIDINVNNKNASSQVFGPFL
glycan array binding signal (z-score): -0.457
--
BINDER: Gal 10 (Homo sapiens), Q05315 (protein) MSLLPVPYTEAASLSTGSTVTIKGRPLVCFLNEPYLQVDFHTEMKEESDIVFHFQVCFGRRVVMNSREYGAWKQQVESKNMPFQDGQEFELSISVLPDKYQVMVNGQSSYTFDHRIKPEAVKMVQVWRDISLTKFNVSYLKR
glycan array binding signal (z-score): 0.459
